# log10 of TGI per entry
Test system: COLO 205 colon
procedure-details: NCI tumour cell line growth inhibition, 48 h
measured-attribute: log10 of TGI (log10 of the value in µM)

COc1cc(CNCCCN2C(=O)c3ccc4c5c(ccc(c35)C2=O)C(=O)N(CCCNCc2cc(OC)c(OC)c(OC)c2)C4=O)cc(OC)c1OC ... -0.45
CCCCCCNC(=O)c1nc(-c2ccccc2)oc1Cc1ccc(OP(=O)(O)O)cc1 ... 1.49
COc1cccc2c1C(=O)c1c(O)c3c(c(O)c1C2=O)C[C@@](O)(C(=O)CO)C[C@@H]3OC1CC(N)C(OC)C(C)O1 (stereo partly drawn) ... 0.29
CC1(C)OCCn2c1nc1c(N3CCOCC3)nc(-c3cnc(N)nc3)nc12 ... 0.77
C[C@H]1NC(=O)C2CCCCN2C(=O)CN(C)C(=O)CNC(=O)C2CCCCN2C(=O)[C@@H](NC(=O)c2nc3ccccc3cc2O)[C@@H](C)NC(=O)C2CCCCN2C(=O)CN(C)C(=O)CNC(=O)[C@@H]2CCCCN2C(=O)C1NC(=O)c1nc2ccccc2cc1O (stereo partly drawn) ... -0.19
COc1cc(C2c3cc4c(cc3C(O)C(CO)C2CO)OCO4)cc(OC)c1OC (stereo not drawn) ... 0.76
COc1ccc(N2C(=O)CS(=O)(=O)C2c2cccc(Oc3ccccc3)c2)cc1 (stereo not drawn) ... 1.06
O=[N+]([O-])c1cc2c(c3nonc13)OCCCCO2 ... 1.25
Cc1nc2cnc(N)c(C#Cc3cncc(C(=O)Nc4ccc(CN5CCN(C)CC5)c(C(F)(F)F)c4)c3)c2nc1C ... -0.20

###

Tested on: SK-MEL-5 melanoma
procedure-details: NCI tumour cell line growth inhibition, 48 h; in the data active means GI50 below about 0.43 µM; inactive means the rest
Labels: active, inactive

COc1ccc2[nH]cc(-c3nc(-c4c[nH]c5ncccc45)cs3)c2c1 ... inactive
COc1cc(-c2nn(-c3cccc(NC(=O)Nc4ccc(Cl)c(Cl)c4)c3)cc2-c2ccncc2)ccc1Cl ... inactive
CC1(C)OCCn2c1nc1c(N3CCOCC3)nc(-c3cnc(N)nc3)nc12 ... active
CCOc1ccc2nc(S/C(=C/C=C(C#N)C#N)c3ccc(C)cc3)sc2c1 ... inactive
Nc1nccc2c1ccn2-c1ccc(NC(=O)c2ccc(N3CCOCC3)c(C(F)(F)F)c2)cc1 ... inactive
Cn1cnc([N+](=O)[O-])c1S(=O)(=O)Oc1ccccc1 ... inactive
CCCn1c(N)c(C(=O)N/N=C(/C)c2cc3cccc(OC)c3o2)sc1=S ... inactive
Cc1csc(Nc2nc(-c3cccc(Br)c3)nc(C(Cl)(Cl)Cl)n2)n1 ... inactive
Nc1c(C(=O)Nc2cccc(Br)c2)sc2nc3c(cc12)C(=O)CCC3 ... active

###

# TGI per entry
Tested on: MDA-MB-231 breast
procedure-details: NCI tumour cell line growth inhibition, 48 h
measured-attribute: TGI (µM)

C#CCN(CC#C)C(=O)C(=O)c1c[nH]c2ccc(OC)cc12 ... 31
Nc1nccc2c1ccn2-c1ccc(NC(=O)c2ccc(N3CCOCC3)c(C(F)(F)F)c2)cc1 ... 1.47
CC(=O)OC1O[C@@H](C(C)(C)O)CC[C@@H]1[C@H]1CC[C@@]2(C)C3=C(CC[C@]12C)[C@@]1(C)C[C@@H](OC(=O)CC(C)(O)CC(=O)O)[C@H](OC(C)=O)C(C)(C)C1CC3 (stereo not given in full) ... 45.5
